Here, each record is paired with measured inhibition at 1 µM data.
# tested system: hDGAT1 (Homo sapiens, UniProt O75907)
# procedure details: In-vitro DGAT1 assay (14C oleoyl CoA, hDGAT1 microsomes from Sf9 cells)
# condition label: read-out: % Inhibition of hDGAT1

CC(C)[C@@H](C(=O)O)N1Cc2ccc(-c3ccc(NS(=O)(=O)c4ccc(F)c(F)c4)cc3)cc2C1=O [Example 82] :: 10 to 50%
CC(C)[C@@H](C(=O)O)N1Cc2ccc(-c3ccc(NC(=O)c4ccc(Cl)cc4Cl)cc3)cc2C1=O [Example 134] :: 10 to 50%
CC(C)[C@@H](C(=O)O)N1Cc2ccc(-c3ccc(NC(=O)c4ccc(N5CCCCC5)nc4)cc3)cc2C1=O [Example 215] :: > 50%
CC(C)[C@@H](C(=O)O)N1Cc2ccc(-c3ccc(NC(=O)Nc4ccc5c(c4)CCC5)cn3)cc2C1=O [Example 402] :: > 50%
CCCCCc1ccc(C(=O)Nc2ccc(-c3ccc4c(c3)C(=O)N([C@H](C(=O)O)C(C)C)C4)nn2)cc1 [Example 500] :: > 50%
CC(C)[C@@H](C(=O)O)N1Cc2ccc(-c3ccc(NC(=O)c4ccc(Oc5ccccc5)cc4)cc3)cc2C1=O [Example 150] :: > 50%

Lab note: next compound to report on.
Input line: Supply measured inhibition at 1 µM of CC(C)[C@@H](C(=O)O)N1Cc2ccc(-c3ccc(NC(=S)Nc4cccc(C(F)(F)F)c4)cc3)cc2C1=O [Example 76] in your reply.
Output line: > 50%

----------
// reported inhibition at 1 µM for each item listed
# tested system: hDGAT1 (Homo sapiens, UniProt O75907)
# procedure details: In-vitro DGAT1 assay (14C oleoyl CoA, hDGAT1 microsomes from Sf9 cells)
# condition label: read-out: % Inhibition of hDGAT1

Reference set, count: 6
CC(C)[C@@H](C(=O)O)N1Cc2ccc(-c3ccc(NC(=O)c4ccc(C(C)(C)C)cc4)cc3C(F)(F)F)cc2C1=O :: 10 to 50%
CCCCCCCc1ccc(C(=O)Nc2ccc(-c3ccc4c(c3)C(=O)N([C@H](C(=O)O)C(C)C)C4)cc2)cc1 :: > 50%
CC(C)[C@@H](C(=O)O)N1Cc2ccc(-c3ccc(NC(=O)c4cc(-c5ccc(Cl)cc5)no4)cc3)cc2C1=O :: > 50%
COc1ccc(NC(=S)Nc2ccc(-c3ccc4c(c3)CN([C@H](C(=O)O)C(C)C)C4=O)cc2)cc1 :: 10 to 50%
Cc1oc(-c2ccccc2)nc1C(=O)Nc1ccc(-c2ccc3c(c2)C(=O)N([C@H](C(=O)O)C(C)C)C3)cc1 :: > 50%
CC(C)[C@@H](C(=O)O)N1Cc2cc(-c3ccc(NC(=S)Nc4cccc(Cl)c4)cc3)ccc2C1=O :: 10 to 50%

Input line: # return recorded inhibition at 1 µM for entry CC(C)[C@@H](C(=O)O)N1Cc2cc(-c3ccc(NC(=O)c4ccc(C(F)(F)F)cc4)cc3)ccc2C1=O
Output line: 10 to 50%

Input line: Provide inhibition at 1 µM value for the following compound: CC(C)[C@@H](C(=O)O)N1Cc2cc(-c3ccc(NC(=O)NC4CCCCC4)cc3)ccc2C1=O
Output line: 10 to 50%

----------
# tested system: hDGAT1 (Homo sapiens)
# Sequence (O75907 1-488): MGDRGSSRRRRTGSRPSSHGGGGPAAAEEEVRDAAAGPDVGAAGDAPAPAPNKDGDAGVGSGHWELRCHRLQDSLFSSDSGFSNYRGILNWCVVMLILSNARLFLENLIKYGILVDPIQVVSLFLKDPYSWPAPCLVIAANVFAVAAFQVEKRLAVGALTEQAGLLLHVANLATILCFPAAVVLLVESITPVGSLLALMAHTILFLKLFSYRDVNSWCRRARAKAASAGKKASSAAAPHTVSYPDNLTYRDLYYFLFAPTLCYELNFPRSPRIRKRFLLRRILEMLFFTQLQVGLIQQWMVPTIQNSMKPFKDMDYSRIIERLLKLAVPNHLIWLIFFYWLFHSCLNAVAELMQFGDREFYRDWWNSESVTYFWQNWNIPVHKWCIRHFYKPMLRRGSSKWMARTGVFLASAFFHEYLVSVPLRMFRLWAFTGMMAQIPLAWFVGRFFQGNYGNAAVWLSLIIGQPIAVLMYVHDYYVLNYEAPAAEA
# procedure details: In-vitro DGAT1 assay (14C oleoyl CoA, hDGAT1 microsomes from Sf9 cells)
# condition label: read-out: % Inhibition of hDGAT1
Listing: inhibition at 1 µM of selected compounds

CCCCOc1ccc(C(=O)Nc2ccc(-c3ccc4c(c3)C(=O)N([C@H](C(=O)O)C(C)C)C4)c(C(F)(F)F)c2)cc1 :: 10 to 50%
CCCc1ccc(C(=O)Nc2ccc(-c3ccc4c(c3)C(=O)N([C@H](C(=O)O)C(C)C)C4)cc2)cc1 :: > 50%
CCCCCc1ccc(C(=O)Nc2ccc(-c3ccc4c(c3)C(=O)N([C@H](C(=O)O)C(C)C)C4)nc2)cc1 :: > 50%
COc1ccc(S(=O)(=O)Nc2ccc(-c3ccc4c(c3)C(=O)N([C@H](C(=O)O)C(C)C)C4)cc2)cc1 :: 10 to 50%
COc1ccc(C(=O)Nc2ccc(-c3ccc4c(c3)C(=O)N([C@H](C(=O)O)C(C)C)C4)cc2)cc1 :: > 50%

Here is the next item to consider.
Input line: Please supply the value of reported inhibition at 1 µM for the item COc1cccc(NC(=O)Nc2ccc(-c3ccc4c(c3)CN([C@H](C(=O)O)C(C)C)C4=O)cc2)c1
Output line: > 50%

----------
Items are presented alongside their recorded inhibition at 1 µM.
# tested system: UniProt:O75907
# procedure details: In-vitro DGAT1 assay (14C oleoyl CoA, hDGAT1 microsomes from Sf9 cells)
# condition label: read-out: % Inhibition of hDGAT1

CC(C)[C@@H](C(=O)O)N1Cc2ccc(-c3ccc(NC(=O)c4ccc(-c5nccs5)cc4)cc3)cc2C1=O [Example 647] :: > 50%

Input line: Output inhibition at 1 µM of CCCCOc1ccc(C(=O)Nc2ccc(-c3ccc4c(c3)C(=O)N([C@H](C(=O)O)C(C)C)C4)cc2F)cc1 [Example 452]
Output line: > 50%

Input line: Fill in reported inhibition at 1 µM for this entry: CCOc1ccccc1C(=O)Nc1ccc(-c2ccc3c(c2)C(=O)N([C@H](C(=O)O)C(C)C)C3)cc1 [Example 202]
Output line: > 50%

Input line: Identify the reported inhibition at 1 µM for the following entry. CC(C)[C@@H](C(=O)O)N1Cc2cc(-c3ccc(NC(=S)Nc4cccc(F)c4)cc3)ccc2C1=O [Example 259]
Output line: 10 to 50%

Input line: Find the measured inhibition at 1 µM of CC(C)[C@@H](C(=O)O)N1Cc2ccc(-c3ccc(NC(=O)c4ccc(C(C)(C)C)cc4)cc3Cl)cc2C1=O [Example 480] and report it.
Output line: > 50%

Input line: Determine from records and report inhibition at 1 µM for CC(C)[C@@H](C(=O)O)N1Cc2ccc(-c3ccc(NC(=S)Nc4cccc(Cl)c4)cc3)cc2C1=O [Example 64]
Output line: 10 to 50%

Input line: Tell me its inhibition at 1 µM given CC(C)[C@@H](C(=O)O)N1Cc2ccc(-c3ccc(NC(=O)c4cccc(F)c4)cc3)cc2C1=O [Example 106] as the entry.
Output line: > 50%

Input line: Identify inhibition at 1 µM associated with the molecule CC(C)[C@@H](C(=O)O)N1Cc2ccc(-c3ccc(NS(=O)(=O)c4ccc(C#N)cc4)cc3)cc2C1=O [Example 80]
Output line: 10 to 50%

Input line: Retrieve inhibition at 1 µM measured for CC(C)[C@@H](C(=O)O)N1Cc2ccc(-c3ccc(NC(=O)Nc4ccc(F)c(F)c4)c(F)c3)cc2C1=O [Example 440] and print it.
Output line: > 50%

Input line: Let me know recorded inhibition at 1 µM for CC(C)[C@@H](C(=O)O)N1Cc2ccc(-c3ccc(NC(=O)Nc4cccc(C(F)(F)F)c4)cc3)cc2C1=O [Example 38] , thanks.
Output line: > 50%

----------
Quick reference for inhibition at 1 µM among some molecules
# tested system: hDGAT1 (Homo sapiens, UniProt O75907)
# procedure details: In-vitro DGAT1 assay (14C oleoyl CoA, hDGAT1 microsomes from Sf9 cells)
# condition label: read-out: % Inhibition of hDGAT1

Cc1ccc(C(=O)Nc2ccc(-c3ccc4c(c3)C(=O)N(C3(C(=O)O)CCC3)C4)cc2)cc1 [Example 582] :: > 50%
CC(C)[C@@H](C(=O)O)N1Cc2ccc(-c3ccc(NC(=S)Nc4ccc(C#N)cc4)cc3)cc2C1=O [Example 68] :: > 50%
COc1cc(NC(=O)c2ccc(OC(F)(F)F)cc2)ccc1-c1ccc2c(c1)C(=O)N([C@H](C(=O)O)C(C)C)C2 [Example 464] :: 10 to 50%
CC(C)[C@@H](C(=O)O)N1Cc2cc(-c3ccc(NC(=O)c4ccccc4)cc3)ccc2C1=O [Example 305] :: 10 to 50%
CC(C)[C@@H](C(=O)O)N1Cc2cc(-c3ccc(NC(=O)Nc4cccc(C#N)c4)cc3)ccc2C1=O [Example 255] :: > 50%

Input line: Give inhibition at 1 µM for Cc1cccc(NC(=O)Nc2ccc(-c3ccc4c(c3)C(=O)N([C@H](C(=O)O)C(C)C)C4)cc2)c1 [Example 22] tested on hDGAT1 (Homo sapiens, UniProt O75907).
Output line: 10 to 50%

Input line: Answer briefly: inhibition at 1 µM recorded on hDGAT1 (Homo sapiens, UniProt O75907) for Cc1cccc(NC(=O)Nc2ccc(-c3ccc4c(c3)CN([C@H](C(=O)O)C(C)C)C4=O)cc2)c1 [Example 243]
Output line: > 50%
